Overview of recorded binary diffusion coefficient for various compounds
Assay: xn = mol fraction of the nth substance listed
Details: 298.15 K; 101.3 kPa; Liquid; Taylor dispersion method; x2 = 0.9

{"Compound": "CCCCCC [hexane] + CCO", "binary diffusion coefficient (m2/s)": "1.43e-09"}
{"Compound": "ClC(Cl)(Cl)Cl [tetrachloromethane] + CCCCO", "binary diffusion coefficient (m2/s)": "6.5e-10"}
{"Compound": "ClC(Cl)(Cl)Cl [tetrachloromethane] + CCO", "binary diffusion coefficient (m2/s)": "1.32e-09"}
{"Compound": "ClC(Cl)(Cl)Cl [tetrachloromethane] + CCCO", "binary diffusion coefficient (m2/s)": "8.3e-10"}
{"Compound": "C1CCCCC1 [cyclohexane] + CCCO", "binary diffusion coefficient (m2/s)": "1e-09"}
{"Compound": "CCCCCC [hexane] + CCCO", "binary diffusion coefficient (m2/s)": "1.09e-09"}
{"Compound": "C1CCCCC1 [cyclohexane] + CCO", "binary diffusion coefficient (m2/s)": "1.23e-09"}
{"Compound": "Cc1ccccc1 [toluene] + CCCO", "binary diffusion coefficient (m2/s)": "1.28e-09"}
{"Compound": "Cc1ccccc1 [toluene] + CCO", "binary diffusion coefficient (m2/s)": "1.55e-09"}

* * *

Overview of recorded binary diffusion coefficient for various compounds
Experiment: xn = mol fraction of the nth substance listed
Settings: 298.15 K; 101.3 kPa; Liquid; Taylor dispersion method; x2 = 0.03
Assay Metric: binary diffusion coefficient (m2/s)

{"Compound": "Cc1ccccc1 [toluene] + CCO", "Recorded Result": "2.94e-09"}
{"Compound": "CCCCCC [hexane] + CCCO", "Recorded Result": "3.37e-09"}
{"Compound": "CCCCCC [hexane] + CCO", "Recorded Result": "4.07e-09"}
{"Compound": "C1CCCCC1 [cyclohexane] + CCO", "Recorded Result": "9.9e-10"}
{"Compound": "Cc1ccccc1 [toluene] + CCCO", "Recorded Result": "2.37e-09"}
{"Compound": "C1CCCCC1 [cyclohexane] + CCCO", "Recorded Result": "8.3e-10"}
{"Compound": "ClC(Cl)(Cl)Cl [tetrachloromethane] + CCCCO", "Recorded Result": "7e-10"}
{"Compound": "ClC(Cl)(Cl)Cl [tetrachloromethane] + CCCO", "Recorded Result": "8.3e-10"}
{"Compound": "ClC(Cl)(Cl)Cl [tetrachloromethane] + CCO", "Recorded Result": "1.06e-09"}

* * *

Test: xn = mol fraction of the nth substance listed
Details: 298.15 K; 101.3 kPa; Liquid; Taylor dispersion method; x2 = 0.3
Assay Metric: binary diffusion coefficient (m2/s)

{"Compound": "ClC(Cl)(Cl)Cl [tetrachloromethane] + CCCO", "Recorded Result": "3.9e-10"}
{"Compound": "ClC(Cl)(Cl)Cl [tetrachloromethane] + CCCCO", "Recorded Result": "2.9e-10"}
{"Compound": "Cc1ccccc1 [toluene] + CCO", "Recorded Result": "1.22e-09"}
{"Compound": "CCCCCC [hexane] + CCO", "Recorded Result": "1.54e-09"}
{"Compound": "Cc1ccccc1 [toluene] + CCCO", "Recorded Result": "1e-09"}
{"Compound": "ClC(Cl)(Cl)Cl [tetrachloromethane] + CCO", "Recorded Result": "6.4e-10"}
{"Compound": "C1CCCCC1 [cyclohexane] + CCO", "Recorded Result": "4.3e-10"}
{"Compound": "CCCCCC [hexane] + CCCO", "Recorded Result": "1.38e-09"}
{"Compound": "C1CCCCC1 [cyclohexane] + CCCO", "Recorded Result": "3.9e-10"}
